- TARGET_DESC: panel of 442 kinases (Homo sapiens)
- Construct: purchased Ambit Biosciences (scanMAXX KINOMEscan)
- Sequence (P29323 19-1055): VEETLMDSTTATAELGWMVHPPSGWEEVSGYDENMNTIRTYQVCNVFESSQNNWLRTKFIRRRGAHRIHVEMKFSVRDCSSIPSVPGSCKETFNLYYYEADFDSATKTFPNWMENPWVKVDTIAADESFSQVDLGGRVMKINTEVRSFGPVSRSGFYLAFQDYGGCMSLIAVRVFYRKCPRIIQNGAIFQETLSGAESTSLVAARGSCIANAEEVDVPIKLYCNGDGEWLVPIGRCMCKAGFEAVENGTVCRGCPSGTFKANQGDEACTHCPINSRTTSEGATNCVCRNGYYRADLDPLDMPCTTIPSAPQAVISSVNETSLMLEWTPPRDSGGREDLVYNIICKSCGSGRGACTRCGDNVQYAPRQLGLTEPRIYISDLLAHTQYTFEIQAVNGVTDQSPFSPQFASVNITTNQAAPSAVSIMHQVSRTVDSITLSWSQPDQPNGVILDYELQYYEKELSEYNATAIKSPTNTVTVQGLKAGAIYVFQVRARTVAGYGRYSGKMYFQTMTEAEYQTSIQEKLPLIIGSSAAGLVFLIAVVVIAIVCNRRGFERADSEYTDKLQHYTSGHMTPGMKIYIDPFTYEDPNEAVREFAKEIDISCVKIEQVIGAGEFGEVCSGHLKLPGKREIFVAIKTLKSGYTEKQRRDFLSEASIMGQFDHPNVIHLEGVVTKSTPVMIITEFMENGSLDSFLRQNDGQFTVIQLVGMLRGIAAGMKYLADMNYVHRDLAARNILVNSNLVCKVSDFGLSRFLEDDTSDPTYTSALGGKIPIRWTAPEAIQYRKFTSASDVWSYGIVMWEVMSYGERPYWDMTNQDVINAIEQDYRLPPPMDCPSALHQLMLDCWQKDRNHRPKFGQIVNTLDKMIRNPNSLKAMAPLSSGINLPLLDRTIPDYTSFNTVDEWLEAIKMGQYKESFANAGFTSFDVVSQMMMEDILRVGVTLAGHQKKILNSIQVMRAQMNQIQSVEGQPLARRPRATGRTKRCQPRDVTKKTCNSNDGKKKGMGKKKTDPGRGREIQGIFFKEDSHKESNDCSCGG
- EXPERIMENT_DESCRIPTION: biochemical
- Type: binding
- CONDITION_DETAILS: EPHB2; 1 µM; read-out: % of control at 1 µM
Hi there, I'd appreciate the recorded remaining activity at 1 µM for every entry that follows.
One number for each entry, in %.

Worked cases, remaining activity at 1 µM given:
STRUCTURE_AS_SMILES: Cn1c(=O)n(-c2ccc(C(C)(C)C#N)cc2)c2c3cc(-c4cnc5ccccc5c4)ccc3ncc21
TARGET_DESC: panel of 442 kinases (Homo sapiens)
remaining activity at 1 µM, %: 100
//
STRUCTURE_AS_SMILES: COc1ncc(-c2ccc3nccc(-c4ccnnc4)c3c2)cc1NS(=O)(=O)c1ccc(F)cc1F
TARGET_DESC: panel of 442 kinases (Homo sapiens)
remaining activity at 1 µM, %: 100
//
STRUCTURE_AS_SMILES: Nc1cc(C(F)(F)F)c(-c2cc(N3CCOCC3)nc(N3CCOCC3)n2)cn1
TARGET_DESC: panel of 442 kinases (Homo sapiens)
remaining activity at 1 µM, %: 82

Switching to the query record.
Inquiry: Entry FC(F)c1nc2ccccc2n1-c1nc(N2CCOCC2)nc(N2CCOCC2)n1 : reported remaining activity at 1 µM = ?
Reply text: 94
